These measurements were taken from patent US10966968B2.

PROTOCOL_DETAILS: Phase 1 open-label crossover drug-drug interaction study: rosiglitazone plasma pharmacokinetics without and with ethyl eicosapentaenoate
ASSAY_CONDITIONS: both, human, plasma, oral, LSGM Cmax, rosiglitazone + EPA; least squares geometric mean from mixed models
PROPERTY_NAME: Cmax (ng/mL)
Report the value in ng/mL with no unit label.

QUERY: # lookup: Cmax of CN(CCOc1ccc(CC2SC(=O)NC2=O)cc1)c1ccccn1 (stereo not shown)
RESULT: 650

###

PROTOCOL_DETAILS: Phase 1 open-label crossover drug-drug interaction study: rosiglitazone plasma pharmacokinetics without and with ethyl eicosapentaenoate
ASSAY_CONDITIONS: both, human, plasma, oral, LSGM AUC0-inf, rosiglitazone + EPA; least squares geometric mean from mixed models
PROPERTY_NAME: AUC(0-inf) (ng·h/mL)
Respond numerically; units are ng·h/mL and should not be typed.

QUERY: Find the recorded AUC(0-inf) belonging to CN(CCOc1ccc(CC2SC(=O)NC2=O)cc1)c1ccccn1 (stereo not shown) and report it.
RESULT: 2840

###

PROTOCOL_DETAILS: Phase 1 open-label crossover drug-drug interaction study: rosiglitazone plasma pharmacokinetics without and with ethyl eicosapentaenoate
ASSAY_CONDITIONS: both, human, plasma, oral, 8 mg, LSGM Cmax, rosiglitazone alone; least squares geometric mean from mixed models
PROPERTY_NAME: Cmax (ng/mL)
Just the number in ng/mL, nothing appended.

QUERY: Can you share its Cmax? I mean this compound: CN(CCOc1ccc(CC2SC(=O)NC2=O)cc1)c1ccccn1 (stereo not shown)
RESULT: 647

###

PROTOCOL_DETAILS: Phase 1 open-label crossover drug-drug interaction study: rosiglitazone plasma pharmacokinetics without and with ethyl eicosapentaenoate
ASSAY_CONDITIONS: both, human, plasma, oral, AUC0-inf, rosiglitazone 8 mg with EPA 4 g (day 29), healthy subjects, plasma; mean (SD)
PROPERTY_NAME: AUC(0-inf) (ng·h/mL)
Answer in ng·h/mL, number only, no unit symbol.

QUERY: Quick check: AUC(0-inf) of CN(CCOc1ccc(CC2SC(=O)NC2=O)cc1)c1ccccn1 (stereo not shown) [Rosiglitazone, rosiglitazone] ?
RESULT: 2920

###

PROTOCOL_DETAILS: Phase 1 open-label crossover drug-drug interaction study: rosiglitazone plasma pharmacokinetics without and with ethyl eicosapentaenoate
ASSAY_CONDITIONS: both, human, plasma, oral
PROPERTY_NAME: Tmax (min)
Give a bare numeral; the unit min is implied.

QUERY: Please look up its Tmax: CN(CCOc1ccc(CC2SC(=O)NC2=O)cc1)c1ccccn1 (stereo not shown)
RESULT: 48

###

PROTOCOL_DETAILS: Phase 1 open-label crossover drug-drug interaction study: rosiglitazone plasma pharmacokinetics without and with ethyl eicosapentaenoate
ASSAY_CONDITIONS: both, human, plasma, oral, 8 mg, Cmax, rosiglitazone 8 mg alone; mean (SD)
PROPERTY_NAME: Cmax

QUERY: Value lookup for Cmax; key = CN(CCOc1ccc(CC2SC(=O)NC2=O)cc1)c1ccccn1 (stereo not shown)
RESULT: 672 ng/mL

###

PROTOCOL_DETAILS: Phase 1 open-label crossover drug-drug interaction study: rosiglitazone plasma pharmacokinetics without and with ethyl eicosapentaenoate
ASSAY_CONDITIONS: both, human, plasma, po, 8 mg, AUC0-inf, rosiglitazone 8 mg single oral dose alone (day 11), healthy subjects, plasma; mean (SD)
PROPERTY_NAME: AUC(0-inf) (ng·h/mL)
Just the number please, in ng·h/mL, no unit attached.

QUERY: For the compound CN(CCOc1ccc(CC2SC(=O)NC2=O)cc1)c1ccccn1 (stereo not shown) , what AUC(0-inf) is on record?
RESULT: 3230
